Each recorded value in this set is attributed to patent US11590116B2.

As shown below, each of these molecules has a reported Ki value.
tested_system: recombinant human ALK5 (TGF-βR1) protein (Homo sapiens)
Construct: purchased Life Technologies PR9075A
Sequence (P36897 34-503): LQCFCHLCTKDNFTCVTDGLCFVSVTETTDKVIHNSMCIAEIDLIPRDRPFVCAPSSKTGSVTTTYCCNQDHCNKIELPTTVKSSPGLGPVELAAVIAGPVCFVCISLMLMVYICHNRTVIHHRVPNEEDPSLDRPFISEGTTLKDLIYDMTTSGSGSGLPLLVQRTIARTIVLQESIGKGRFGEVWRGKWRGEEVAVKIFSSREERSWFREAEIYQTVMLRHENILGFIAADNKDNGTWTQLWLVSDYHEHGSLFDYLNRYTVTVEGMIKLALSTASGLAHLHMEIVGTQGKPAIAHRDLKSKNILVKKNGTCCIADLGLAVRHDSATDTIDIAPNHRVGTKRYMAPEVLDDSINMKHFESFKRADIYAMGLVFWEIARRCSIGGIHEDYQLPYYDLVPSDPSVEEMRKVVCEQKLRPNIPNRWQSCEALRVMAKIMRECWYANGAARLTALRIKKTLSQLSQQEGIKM
protocol_description: Biochemical ALK5 (TGF-βR1) assay to measure pKi (LANCE Ultra ULight kinase assay)
assay_conditions: apparent pKi from pIC50 by Cheng-Prusoff, read-out: ALK5 pKi (converted)

Solved entries:
1) CN[C@H]1CC[C@H](OC(=O)c2cnc3ccc(-c4cn[nH]c4-c4cccc(C)n4)cc3c2)CC1 :: 0.0398 to 0.316 nM
2) Cc1cccc(-c2c(-c3ccc4ncc(N5CCCNCC5)cc4c3)nnn2Cc2ccccc2)n1 :: 0.398 to 3.16 nM
3) Cc1cccc(-c2n[nH]cc2-c2ccc3ncc(N4CCC(N5CCCC5)C4)cc3n2)n1 (centres unmarked) :: < 0.0316 nM
4) Cc1cccc(-c2[nH]cnc2-c2ccc3ncc(C4=CCN(C(=O)[C@@H]5CCCN5)CC4)cc3c2)n1 :: 0.0398 to 0.316 nM
5) Cc1cccc(-c2[nH]cnc2-c2ccc3ncc(C4=CCN(C(=O)C5CCNCC5)CC4)cc3c2)n1 :: 0.0398 to 0.316 nM
6) Cc1nc(-c2n[nH]cc2-c2ccc3ncc(-c4cn5c(n4)NCC5)cc3n2)ccc1F :: < 0.0316 nM

Identify measured Ki corresponding to "Cc1cccc(-c2n[nH]cc2-c2ccc3ncc(-c4ccnc(C#N)c4)cc3n2)n1" < 0.0316 nM

Provide Ki value for the following molecule: "Cc1cccc(-c2[nH]cnc2-c2ccc3ncc(-c4nc(C(=O)OC5CNC5)cs4)cc3c2)n1" 0.0398 to 0.316 nM
